B1: r16_88_TrROS_Hall (parent)
chain: EVIELKIKFKTPEQREKLKEIAKKLNAEVVEEKDGEVIIRFKTPEQAERALKEAEKLGAEVEL

variants of: B1; experiment: folding stability dG (cDNA display proteolysis); higher = more stable; conditions: PBS, room temperature
Please mark TRUE if the recorded folding stability dG is equal to or greater than 4 kcal/mol, and FALSE if it falls below.

>>> category("R15K")
"TRUE"
>>> category("K33P")
"TRUE"
>>> category("K52C")
"TRUE"
>>> category("E45G")
"TRUE"
>>> category("E36S")
"TRUE"
>>> category("I7D")
"FALSE"
>>> category("R49S")
"TRUE"
>>> category("F41D")
"FALSE"
>>> category("L18Q")
"FALSE"
>>> category("I39Y")
"TRUE"
>>> category("F41P")
"FALSE"
>>> category("V29G")
"TRUE"
>>> category("K17H")
"TRUE"
>>> category("G58P")
"FALSE"
>>> category("A59H")
"TRUE"
>>> category("R49M")
"TRUE"
>>> category("K10M")
"TRUE"
>>> category("V30G")
"TRUE"
>>> category("L63R")
"TRUE"
>>> category("E4S")
"TRUE"
>>> category("V61I")
"TRUE"
>>> category("P12Q")
"TRUE"
